meta.source: patent US6340694B1

- system: COX-2 (Mus musculus, UniProt Q05769)
- Construct: endogenous in cells; host or cells: peritoneal macrophages of C57BL/6 mouse, aspirin-pretreated, LPS-induced
- Sequence (Q05769 18-604): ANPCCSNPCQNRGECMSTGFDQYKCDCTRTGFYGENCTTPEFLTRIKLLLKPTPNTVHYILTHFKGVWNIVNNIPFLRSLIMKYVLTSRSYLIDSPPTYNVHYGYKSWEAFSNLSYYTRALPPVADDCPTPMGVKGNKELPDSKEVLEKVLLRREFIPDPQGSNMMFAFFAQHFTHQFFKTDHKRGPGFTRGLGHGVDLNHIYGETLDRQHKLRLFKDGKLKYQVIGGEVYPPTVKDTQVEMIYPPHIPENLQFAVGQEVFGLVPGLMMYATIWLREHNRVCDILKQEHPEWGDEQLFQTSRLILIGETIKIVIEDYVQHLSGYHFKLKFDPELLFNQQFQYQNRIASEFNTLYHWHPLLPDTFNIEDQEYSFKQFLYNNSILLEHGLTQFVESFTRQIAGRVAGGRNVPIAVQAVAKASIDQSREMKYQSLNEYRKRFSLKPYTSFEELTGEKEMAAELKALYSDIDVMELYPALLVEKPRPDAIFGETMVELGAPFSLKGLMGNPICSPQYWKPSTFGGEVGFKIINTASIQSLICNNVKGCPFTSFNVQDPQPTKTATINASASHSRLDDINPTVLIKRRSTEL
- assay method text: Evaluation of COX-2's inhibition efficacy (PGE2 radioimmuno assay, LPS-induced, aspirin-pretreated peritoneal macrophages)
- Format: cell-based, C57BL/6 mouse
- experimental conditions: 10 μg/ml
Give inhibition at 10 µg/mL for every item shown.
Answers are plain numbers, in %.

Please report inhibition at 10 µg/mL for every entry that follows.
1. NS(=O)(=O)c1ccc(-c2oc3ccc(F)cc3c(=O)c2-c2cccc(F)c2)cc1
2. CS(=O)(=O)c1ccc(-c2oc3ccccc3c(=O)c2-c2cncc(Br)c2)cc1
3. COc1ccc(-c2c(-c3ccc(S(N)(=O)=O)cc3)oc3ccccc3c2=O)cc1
4. CS(=O)(=O)c1ccc(-c2oc3ccccc3c(=S)c2-c2cccc(F)c2)cc1

1: 100; 2: 35; 3: 100; 4: 91
